Target: Gal3S(b1-4)[Fuc(a1-3)]Glc
Assay: glycan array binding signal (z-score within array); higher = stronger binding
Details: glycan notation: IUPAC condensed, linker removed
Many of the other results were omitted from the sample, so the strongest signals are more common in it than they were.
# glycan array binding signal (z-score) listing for each entry below
Give the figure only, with no unit attached.

Solved cases (2 shown):
{"columns": ["Binder", "Readout Number"],
 "data": [
  ["Gal 3 (Homo sapiens), P17931 (protein) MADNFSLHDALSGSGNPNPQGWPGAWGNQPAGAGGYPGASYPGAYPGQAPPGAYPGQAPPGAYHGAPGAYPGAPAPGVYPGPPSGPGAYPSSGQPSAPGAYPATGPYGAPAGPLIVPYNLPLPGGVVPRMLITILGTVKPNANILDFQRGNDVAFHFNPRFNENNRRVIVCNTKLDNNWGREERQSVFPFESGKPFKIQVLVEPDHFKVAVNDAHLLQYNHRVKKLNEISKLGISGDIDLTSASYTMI", -0.39],
  ["Mincle (Homo sapiens), Q9ULY5 (protein) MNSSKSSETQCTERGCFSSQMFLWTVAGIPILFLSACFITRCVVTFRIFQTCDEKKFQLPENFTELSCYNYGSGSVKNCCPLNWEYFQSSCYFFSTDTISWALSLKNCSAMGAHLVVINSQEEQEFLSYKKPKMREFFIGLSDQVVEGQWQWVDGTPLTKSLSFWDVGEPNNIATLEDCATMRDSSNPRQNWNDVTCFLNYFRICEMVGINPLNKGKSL", -0.146]
]}

Exercise: Name the recorded glycan array binding signal (z-score) for Eosinophil cationic protein (ECP) (Homo sapiens), P12724 (protein) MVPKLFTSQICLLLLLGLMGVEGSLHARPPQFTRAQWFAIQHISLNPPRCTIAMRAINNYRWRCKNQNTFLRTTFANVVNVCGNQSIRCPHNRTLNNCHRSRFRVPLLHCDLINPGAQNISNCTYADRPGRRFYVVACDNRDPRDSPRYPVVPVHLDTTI .
Solution: 2.4

Exercise: I'd like to know its glycan array binding signal (z-score). The binder in question is LlpA1 (Pseudomonas fluorescens), Q4KHC3 (protein) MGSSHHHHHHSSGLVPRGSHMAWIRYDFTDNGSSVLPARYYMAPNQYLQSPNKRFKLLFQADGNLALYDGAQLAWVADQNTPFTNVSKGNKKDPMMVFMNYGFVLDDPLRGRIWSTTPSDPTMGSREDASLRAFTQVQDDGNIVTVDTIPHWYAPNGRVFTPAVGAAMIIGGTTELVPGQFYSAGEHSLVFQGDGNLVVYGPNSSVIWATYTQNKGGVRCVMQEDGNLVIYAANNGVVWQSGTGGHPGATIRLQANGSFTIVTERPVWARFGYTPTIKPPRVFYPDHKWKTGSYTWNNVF
Solution: -0.518

Exercise: Need glycan array binding signal (z-score), item SLLPI (Mus musculus), Q9D9X8 (protein) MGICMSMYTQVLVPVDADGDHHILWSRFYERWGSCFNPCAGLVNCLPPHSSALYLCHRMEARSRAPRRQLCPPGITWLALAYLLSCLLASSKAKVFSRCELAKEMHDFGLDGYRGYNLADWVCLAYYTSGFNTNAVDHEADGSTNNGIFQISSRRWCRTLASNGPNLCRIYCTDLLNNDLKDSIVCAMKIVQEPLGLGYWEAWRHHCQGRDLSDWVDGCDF
Solution: 1.15

The measurements presented in this section are drawn from the supplement of paper PMC8728848.
